- Tested on: downy bromegrass (Bromus tectorum)
- TEST: Test C pre-/postemergence plant response
- Assay type: in vivo
- MEASUREMENT PARAMETERS: Postemergence, 62 g ai/ha; scale 0 to 100, 0 no effect, 100 complete control
ASSAY ENDPOINT: Plant response rating, Bromegrass, Downy
Give only the figure.

Cc1nn(C)c(=O)c(-n2nc(-c3ccc(Cl)cc3)cc2C)c1O [Compound 15] = 30
Cc1cc(-c2ccc(Cl)cc2)nn1-c1c(OC(=O)CC(C)C)cnn(C)c1=O [Compound 37] = 70
CCCc1cc(-c2ccc(Cl)cc2)nn1-c1c(O)cnn(C)c1=O [Compound 43] = 75

The measured Plant response rating, Bromegrass, Downy associated with CCOC(=O)Oc1cnn(C)c(=O)c1-n1nc(-c2ccc(Cl)cc2)cc1C [Compound 53] reads 90
